Origin of the recorded values: the antibiotic and cytotoxicity screens of Wong et al. (2023)

system: HSkMC; assay: cytotoxicity call (relative viability < 0.9); details: 10 µM
In all, about 39,000 compounds went through this assay and about 1,500 (3.8%) were called active. The full list was thinned out, with actives kept by preference.
Hi there, use one of these labels in your reply, thanks! active, inactive

What was the test verdict on C[C@@H]1CCCCO[C@@H](CN(C)Cc2ccc3c(c2)OCO3)[C@H](C)CN([C@@H](C)CO)C(=O)c2cc(NC(=O)Nc3cccc4ccccc34)ccc2O1 ? inactive

Next record, please: COc1ccc(NC(=O)N2C[C@H](O)COC[C@H]3O[C@H](CC(=O)NC4Cc5ccccc5C4)CC[C@@H]32)cc1 inactive

Same thing, different compound: C[C@H]1CN([C@@H](C)CO)C(=O)Cc2cc(NS(=O)(=O)c3ccccc3)ccc2O[C@@H]1CN(C)Cc1ccc(Oc2ccccc2)cc1 active

Also NCCCCCNC(=O)[C@H]1C[C@H]2C(=O)NCC(=O)N2[C@H]1c1cccc(OCCO)c1 , if possible. inactive

Quick one: COc1ccc(NC(=O)N(C)C[C@@H]2OCCCC[C@@H](C)Oc3ccc(NC(=O)Cc4ccccc4)cc3C(=O)N([C@@H](C)CO)C[C@H]2C)cc1 inactive

Request: C[C@@H]1CCCCO[C@H](CN(C)Cc2ccc3c(c2)OCO3)[C@H](C)CN([C@H](C)CO)C(=O)c2cc(NC(=O)Nc3cccc4ccccc34)ccc2O1 active

O=C(N[C@@H](c1cccnc1)c1ccc2c(c1)OCO2)C1CCN(CCOc2ccc(Cl)cc2Cl)CC1 , same question. inactive

Record: COc1ccc(NC(=O)Nc2ccc3c(c2)CC(=O)N([C@@H](C)CO)C[C@@H](C)[C@@H](CN(C)Cc2ccc(Cl)c(Cl)c2)O3)cc1 inactive

And then Cc1noc(C)c1S(=O)(=O)Nc1ccc2c(c1)CC(=O)N([C@@H](C)CO)C[C@@H](C)[C@H](CN(C)C(=O)Nc1ccc3c(c1)OCO3)O2 , what is it? inactive

Now this one: Cc1ccc(S(=O)(=O)N(C)C[C@H]2OCCCC[C@@H](C)Oc3ccc(NS(C)(=O)=O)cc3C(=O)N([C@H](C)CO)C[C@H]2C)cc1 inactive

====

tested on: HSkMC; experiment: cytotoxicity call (relative viability < 0.9); details: 10 µM
Hit rate of the full screen: of about 39,000 compounds, about 1,500 (3.8%) were called active. For the sample, actives were picked, then their nearest neighbours and some compounds at random.
Please answer using one outcome listed in T for active, F for inactive

Recorded test outcome, item Cc1noc(C)c1NC(=O)Nc1ccc2c(c1)CC(=O)N([C@@H](C)CO)C[C@H](C)[C@H](CN(C)S(=O)(=O)c1cccs1)O2 F

Check CCS(=O)(=O)N[C@H]1C=C[C@@H](CC(=O)NCc2ccc(Cl)cc2)O[C@@H]1CO too. F

Can you handle COc1cccc(S(=O)(=O)Nc2ccc3c(c2)[C@H]2C[C@@H](CC(=O)NCCc4ccccc4)O[C@H](CO)[C@H]2O3)c1 next? T

Now try C[C@H](CO)N1C[C@H](C)[C@@H](CN(C)Cc2ccc(Oc3ccccc3)cc2)Oc2ccc(NC(=O)Nc3ccc4c(c3)OCO4)cc2CC1=O . T

Also, C[C@@H]1CN([C@@H](C)CO)C(=O)Cc2cc(NC(=O)Nc3ccc4c(c3)OCO4)ccc2O[C@H]1CN(C)Cc1ccc(Oc2ccccc2)cc1 please. F

Could you do the same for COc1ccc(NC(=O)Nc2ccc3c(c2)C(=O)N([C@@H](C)CO)C[C@H](C)[C@@H](CN(C)C(=O)Nc2ccc(F)cc2)OCCCC[C@H](C)O3)cc1 , please? F

What about CC[C@@H]1/C=C(\C)C[C@H](C)C[C@H](OC)[C@H]2O[C@@](O)(C(=O)C(=O)N3CCCC[C@H]3C(=O)O[C@H](/C(C)=C/[C@@H]3CC[C@H](Cl)[C@H](OC)C3)[C@H](C)[C@@H](O)CC1=O)[C@H](C)C[C@@H]2OC ? F

====

test system: HSkMC; assay: cytotoxicity call (relative viability < 0.9); details: 10 µM
In all, about 39,000 compounds went through this assay and about 1,500 (3.8%) were called active. For the sample, actives were picked, then their nearest neighbours and some compounds at random.
Answer with one of the outcomes given here: true (1) for active, false (0) for inactive

# fetch the recorded call for CCc1nc2ccc(C(=O)NCCOc3ccc(OC)cc3)cn2c1N(CC)Cc1cccc(Br)c1 here false (0)

Try this compound next: C[C@@H]1CN([C@H](C)CO)C(=O)c2cccc(NC(=O)Nc3ccccc3)c2O[C@H]1CN(C)Cc1ccc(C(F)(F)F)cc1 true (1)

Input C[C@@H]1CN([C@@H](C)CO)C(=O)c2cccc(NC(=O)Nc3ccccc3)c2O[C@H]1CN(C)Cc1ccc(C(F)(F)F)cc1 false (0)

Similarly, C=C1C=[N+]([O-])N(c2ccc(C(=O)O)cc2)N1 ? false (0)

Next entry: COc1ccc(NC(=O)N(C)C[C@@H]2OCCCC[C@@H](C)Oc3ccc(NS(=O)(=O)c4ccccc4)cc3C(=O)N([C@@H](C)CO)C[C@H]2C)cc1 false (0)

Follow-up entry: C[C@@H]1CN([C@@H](C)CO)C(=O)c2cccc(NC(=O)c3ccc(-c4nccs4)cc3)c2O[C@@H]1CN(C)Cc1ccc(C(=O)O)cc1 false (0)

Then C[C@H](CO)N1C[C@H](C)[C@H](CN(C)Cc2cccc(C(F)(F)F)c2)Oc2ncc(-c3cccc(C(F)(F)F)c3)cc2C1=O ? true (1)

Please do the same for Cc1cccc(CN(C)C[C@@H]2Oc3ncc(-c4cccc(C(F)(F)F)c4)cc3C(=O)N([C@H](C)CO)C[C@@H]2C)c1 as well. false (0)

Same question for O=[N+]([O-])c1ccc(Oc2ccc(-c3ccccc3)cc2)cc1 please. false (0)

Now consider C[C@H]1CN([C@@H](C)CO)C(=O)c2cccc(NC(=O)Nc3ccccc3)c2O[C@@H]1CN(C)Cc1ccc(C(F)(F)F)cc1 and answer again. true (1)

Proceed to C[C@H](CO)N1C[C@H](C)[C@@H](CN(C)Cc2ccc(-c3ccccc3)cc2)Oc2c(NC(=O)CCCCCC(=O)Nc3ccccc3N)cccc2C1=O false (0)

Same question, C[C@H](CO)N1C[C@H](C)[C@H](CN(C)Cc2ccc(C(F)(F)F)cc2)Oc2c(NC(=O)Nc3ccccc3)cccc2C1=O this time false (0)

Subsequent entry: CN1C(=O)NC2(CCNCC2)C1=O false (0)

Now give it for C[C@H]1CN([C@@H](C)CO)C(=O)c2cccc(NC(=O)Nc3ccc(C(F)(F)F)cc3)c2O[C@H]1CN(C)Cc1ccc(-c2ccccc2)cc1 too. false (0)

Thanks! And CC(C)NC(=O)Nc1ccc2c(c1)C(=O)N([C@@H](C)CO)C[C@H](C)[C@@H](CN(C)Cc1ccc3c(c1)OCO3)O2 ? false (0)

====

tested on: HSkMC (human skeletal muscle cells); test: cytotoxicity call (relative viability < 0.9); details: 10 µM
The whole screen tested about 39,000 compounds, of which about 1,500 (3.8%) were called active. Only a selection was taken, and actives are over-represented in it overall.
Assign a class; possible classes are active, inactive

Fill in: this test's call for COc1ccc(NC(=O)N(C)C[C@@H]2Oc3ccc(NC(=O)CCCN(C)C)cc3CC(=O)N([C@H](C)CO)C[C@H]2C)cc1 is ___ inactive

// query: C=CCOC(=O)[C@H]1[C@@H]2C(=O)O[C@@H](c3ccccc3)[C@@H](c3ccccc3)N2[C@@H](c2ccc(OCCOC(=O)[C@H]3C[C@H]4C(=O)N5CCC[C@H]5C(=O)N4[C@H]3c3cccc(OCCO)c3)cc2)[C@]12C(=O)Nc1ccccc12 inactive

// query: Cc1ccc(S(=O)(=O)Nc2ccc3c(c2)CC(=O)N([C@H](C)CO)C[C@@H](C)[C@@H](CN(C)Cc2ccc(Cl)c(Cl)c2)O3)cc1 active

Next compound up: O=c1[nH]cc(/N=C/c2ccncc2)c(=O)[nH]1 inactive

Same lookup for CC1OC(OC2C(O)CC(OC3C(O)CC(OC4CCC5(C)C(CCC6C5CC(O)C5(C)C(C7=CC(=O)OC7)CCC65O)C4)OC3C)OC2C)CC(O)C1O (stereo unspecified) , please. active

Can you handle C[C@H](CO)N1C[C@H](C)[C@H](CN(C)S(C)(=O)=O)Oc2ccc(NC(=O)C3CCCCC3)cc2CC1=O next? inactive

Same question, C[C@@H]1CN([C@H](C)CO)C(=O)c2cc(NC(=O)Nc3ccc(C(F)(F)F)cc3)ccc2O[C@@H](C)CCCCO[C@@H]1CN(C)CC1CCCCC1 this time active

Now consider COc1ccc([Si](C)(C)[C@H]2[C@H](CC(=O)N3Cc4ccccc4C[C@H]3CO)O[C@@]3(C(=O)N(Cc4cccc(N5CCC5=O)c4)c4ccccc43)[C@@H]2C)cc1 and answer again. inactive

Entry to check: C[C@H]1CN([C@@H](C)CO)C(=O)Cc2cc(NC(=O)C3CCCCC3)ccc2O[C@H]1CN(C)Cc1ccc(Cl)c(Cl)c1 inactive

# repeat for COc1ccc(S(=O)(=O)N(C)C[C@H]2Oc3c(NC(=O)Nc4c(C)noc4C)cccc3C(=O)N([C@@H](C)CO)C[C@@H]2C)cc1 inactive

What do you have for C[C@@H]1CN([C@H](C)CO)C(=O)Cc2cc(NC(=O)C3CCCCC3)ccc2O[C@@H]1CN(C)Cc1ccc(Cl)c(Cl)c1 ? active
